- EXPERIMENTAL_SYSTEM: T1, CD71 apical domain (human, UniProt P02786 189-383, limits assumed)
- T1 construct: domain: apical domain
- T1 sequence (P02786 189-383 limits assumed): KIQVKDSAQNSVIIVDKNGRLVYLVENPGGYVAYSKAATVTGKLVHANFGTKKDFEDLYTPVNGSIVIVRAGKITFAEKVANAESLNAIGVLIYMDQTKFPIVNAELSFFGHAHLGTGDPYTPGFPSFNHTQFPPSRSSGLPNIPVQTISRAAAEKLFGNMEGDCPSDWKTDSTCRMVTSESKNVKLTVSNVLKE
- RUN_DESCRIPTION: solution ELISA screen (luminescence)
READOUT_TYPE: RLU (RLU)
Numeric only. Scale: RLU

SEQ ID NO 204 (designed binder, not shown: small tags and cut ends) MLPAPKNLVVSRVTEDSARLSWTAPDAAFDSFFIGYLEPQPPGEAILLWVPGSERSYDLTGLKPGTEYNVTIQGVKGGFPSQFTT | 6.35e+06

q: Return reported RLU; argument: SEQ ID NO 263 (designed binder, not shown: small tags and cut ends) MLPAPKNLVVSRVTEDSARLSWTAPDAAFDSFYIAYAEPRPDGEAIALVVPGSERSYDLTGLKPGTEYSVLIHGVKGGLLSSPLAANFTT
a: 4.37e+06

q: Return reported RLU; argument: SEQ ID NO 265 (designed binder, not shown: small tags and cut ends) MLPAPKNLVVSRVTEDSARLSWTAPDAAFDSFYIAYAEPRPDGEAIVLEVPGSERSYDLTGLKPGTEYSVLIHGVKGGLLSSPLTASFTT
a: 7.21e+06

q: Return reported RLU; argument: SEQ ID NO 213 (designed binder, not shown: small tags and cut ends) MLPAPKNLVVSRVTEDSARLSWTAPDAAFDSFYIAYAEPRPDGEAILLGVPGSERSYDLTGLKPGTEYSVLIHGVKGGLLSSPLFTT
a: 2.03e+06

q: Return reported RLU; argument: SEQ ID NO 227 (designed binder, not shown: small tags and cut ends) MLPAPKNLVVSRVTEDSARLSWTAPDAAFDSFYIAYAEPRPDGEAIGLRVPGSERSYDLTGLKPGTEYSVLIHGVKGGLLSSPLSAIFTT
a: 4.99e+06

Origin of the recorded values: patent US20220332795A1
